target: human V2 receptor (Homo sapiens); experiment: Cellular in vitro assay for determining vasopressin receptor activity, V2 receptor cell line (CRE-luciferase); settings: CHO cell line transfected with human V2 receptor; [Arg8]-vasopressin at EC50; compounds of the invention (Table 1A); read-out: IC50 hV2
Sequence (P30518 whole entry): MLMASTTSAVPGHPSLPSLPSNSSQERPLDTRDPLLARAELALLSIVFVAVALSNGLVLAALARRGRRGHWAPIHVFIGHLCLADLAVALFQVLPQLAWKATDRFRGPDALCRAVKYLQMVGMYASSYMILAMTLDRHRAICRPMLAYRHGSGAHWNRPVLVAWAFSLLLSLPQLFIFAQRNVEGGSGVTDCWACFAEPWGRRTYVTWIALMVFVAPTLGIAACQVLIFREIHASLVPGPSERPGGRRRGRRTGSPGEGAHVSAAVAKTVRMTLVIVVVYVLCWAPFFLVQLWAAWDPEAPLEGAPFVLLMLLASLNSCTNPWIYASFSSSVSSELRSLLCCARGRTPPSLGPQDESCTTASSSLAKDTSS
pIC50: −log10 of the molar value.
valueType: pIC50

Worked cases, pIC50 given:
COc1ccccc1-n1nc(Cn2nc(-c3ccc(Cl)cc3)n(C[C@H](O)C(F)(F)F)c2=O)nc1CO ... 8.25
CC(O)c1nc(Cn2nc(-c3ccc(Cl)cc3)n(C[C@H](O)C(F)(F)F)c2=O)nn1-c1ccccc1 (mixture of isomers) [Example 16] ... 8.22
CC(O)c1nc(Cn2nc(-c3ccc(Cl)cc3)n(C[C@H](O)C(F)(F)F)c2=O)nn1-c1cc(Cl)ccc1Cl (single isomer, unassigned) [Example 50] ... 8.00

[P] CC(O)c1nc(Cn2nc(-c3ccc(Cl)cc3)n(C[C@H](O)C(F)(F)F)c2=O)nn1-c1cc(Cl)cc(Cl)c1 (single isomer, unassigned) [Example 48]
[Q] CC(O)c1nc(Cn2nc(-c3ccc(Cl)cc3)n(C[C@H](O)C(F)(F)F)c2=O)nn1-c1ccccc1C(F)(F)F (single isomer, unassigned) [Example 74]
[R] C[C@@H](O)c1nc(Cn2nc(-c3ccc(Cl)cc3)n(C[C@H](O)C(F)(F)F)c2=O)nn1-c1cccc(Cl)c1
QUERY: Rank descending by pIC50. Answer by listing the labels in the requested order.
RESULT: P, R, Q
(P: 8.62, R: 8.29, Q: 7.61)
